B1: PKD2L1 (parent)
chain: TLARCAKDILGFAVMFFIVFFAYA

Variants of: B1
Assay: protein stability index of a GFP-peptide fusion (GPS, HEK-293T) (PSI 1-6); higher = more stable;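 also: lentivirally expressed fusions sorted by FACS into six bins by GFP to DsRed ratio, PSI derived from sequencing read proportions per bin multiplied by bin number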
Conditions: c terminus: a fixed tail appended
Label Satisfied when protein stability index is at or above 3; anything below gets Not satisfied.

> print(dat)
    sequence.change  category.label
 1             V19Q       Satisfied
 2             A22T   Not satisfied
 3             F12N   Not satisfied
 4             V19A   Not satisfied
 5              T1L   Not satisfied
 6              R4Q   Not satisfied
 7             V19I   Not satisfied
 8             F17D       Satisfied
 9             A13P   Not satisfied
10              A6M   Not satisfied
11             F12D   Not satisfied
12              A6I   Not satisfied
13              D8C   Not satisfied
14             F16Y   Not satisfied
15             V14Y       Satisfied
16              C5F       Satisfied
17             I18M   Not satisfied
18             V19C   Not satisfied
19              A3D   Not satisfied
20             F17E   Not satisfied
21             F17N   Not satisfied
22             V19F   Not satisfied
23             M15H   Not satisfied
24             F17S   Not satisfied
25              T1S   Not satisfied
26             V19R   Not satisfied
27             A22M   Not satisfied
28             V14S   Not satisfied
29             G11H       Satisfied
30             G11Y   Not satisfied
31             A22S       Satisfied
32             F12G   Not satisfied
33              A6L       Satisfied
34             L10W   Not satisfied
35             Y23K   Not satisfied
36              A3T       Satisfied
37             I18R   Not satisfied
38             A24W       Satisfied
